Experiment: chemical genetic growth profiling, strain panel (AID 1159580);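 also: tested at 20 µM; growth read once vehicle control cultures reached saturation at 30 °C; 1 = growth at the plate median or of vehicle wells; lower values mean less growth of the strain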
Details: S. cerevisiae deletion strains, growth OD, locus YGR040W, strain KSS1
Out of some 5,500 compounds screened, about 2,000 (36%) were called active. About 18% were inconclusive and are not listed. Rule as the data show it: active = normalized growth mostly below about 0.91 (no sharp cut-off); inconclusive = no clear call, values can overlap the other calls; inactive = mostly above about 0.92. Some of the results follow.
Your reply should match one of these outcome classes. 1.0 = active, 0.0 = inactive

CC(C)(C)c1cc(C(=O)/C(C#N)=N\Nc2ccc(Cl)cc2)no1 : 1.0
O=C(N/N=C\c1cc(Cl)cc(Cl)c1O)c1ccccc1Oc1ccccc1 : 0.0
Cc1c(NCN2C(=O)CCC2=O)cc2c(c1[N+](=O)[O-])C(C)(C)CC2(C)C : 0.0

Ask: Please indicate how the test categorized CSC(SC)=C(C#N)C(=O)c1ccccc1Cl .
Reply: 1.0

Ask: Please indicate how the test categorized NNC(=O)COc1ccc(C2SCCS2)cc1 .
Reply: 1.0

Ask: Please indicate how the test categorized Cc1nc(C(F)(F)F)ccc1-c1nnc(SC(=O)c2ccc(Cl)cc2)o1 .
Reply: 0.0

Ask: Please indicate how the test categorized Nc1ccccc1C(=O)N/N=C\c1cc(Cl)cc(Cl)c1O .
Reply: 0.0

Ask: Please indicate how the test categorized CC(/C=C/c1ccccc1)=N/OC(=O)c1ccccc1Cl .
Reply: 0.0

Ask: Please indicate how the test categorized COc1cc(OC)cc(/C(N)=N\O)c1 .
Reply: 0.0

Ask: Please indicate how the test categorized CSc1nc(Sc2n[nH]c(-c3ccccc3)n2)cc(Sc2n[nH]c(-c3ccccc3)n2)n1 .
Reply: 0.0

Ask: Please indicate how the test categorized O=C(Oc1ccc(C2SCCS2)cc1)c1cccs1 .
Reply: 0.0

Ask: Please indicate how the test categorized N#C/C(=N/Nc1ccc(C(F)(F)F)cc1)C(=O)C1CC1 .
Reply: 0.0

----------
Assay: chemical genetic growth profiling, strain panel (AID 1159580)
Details: S. cerevisiae deletion strains, growth OD, locus YAL026C, strain drs2, active compounds read low
The campaign covered roughly 5,500 compounds. About 2,000 (36%) were called active. Inconclusive results (about 18%) are left out. This is one part of the list.
Response field label: string, one of MET (normalized growth strictly below 1) or NOT MET.

COc1c2occc2cc2ccc(=O)oc12 : MET

Ask: Lab note: normalized growth threshold 1. Does this compound come in strictly under it? COc1cc(O)c(C(C)=O)c(OC)c1
Reply: MET

Ask: Lab note: normalized growth threshold 1. Does this compound come in strictly under it? Cn1cnc([N+](=O)[O-])c1Sc1ncnc2nc[nH]c12
Reply: NOT MET

Ask: Lab note: normalized growth threshold 1. Does this compound come in strictly under it? FC(F)(F)COCC(F)(F)F
Reply: NOT MET

----------
Hi there, I'd appreciate the recorded normalized growth for every entry that follows.
Assay: chemical genetic growth profiling, strain panel (AID 1159580)
Details: S. cerevisiae deletion strains, growth OD, locus YOR106W, strain vam3, active compounds read low
In all, about 5,500 compounds went through this assay and about 2,000 (36%) were called active. Not shown: some 18% with an inconclusive outcome. The list shows a part of the results.
Answers are plain numbers.

CCCC(=O)Nc1ncnc2c1ncn2C1O[C@@H]2COP(=O)(O)O[C@H]2[C@H]1OC(=O)CCC (stereo partly drawn) : 0.982
COP(=S)(OC)SCn1nnc2ccccc2c1=O : 0.918

GET /value?item= CC(C)(O)CC[C@@H](O)[C@](C)(O)C1CC[C@@]2(O)C3=CC(=O)C4C[C@@H](O)[C@@H](O)C[C@]4(C)C3CC[C@]12C (stereo partly drawn) &field=normalized growth returns 1.01

----------
Experiment: chemical genetic growth profiling, strain panel (AID 1159580)
Conditions: S. cerevisiae deletion strains, growth OD, locus YEL061C, strain CIN8, active compounds read low
Among all 5,500 compounds or so, about 2,000 (36%) were called active. Inconclusive results (about 18%) are left out. Some of the results follow.
Hi there, I'd appreciate the recorded normalized growth for every entry that follows.
Numbers only.

CCOC(=N)c1ccc(F)c(Cl)c1 : 1.01
CCc1cccc(C)c1NC(=O)N1CCN(C(=O)OC(C)(C)C)CC1 : 1.01
COc1ccc2c(c1)[nH]c1c(C)nccc12 : 1.01
CC(=O)CC(C)=Nc1ccc(C(F)(F)F)cc1 : 1.01
CCSC(SCC)[C@H](O)[C@@H](O)[C@H](O)CO : 0.998

Now look at this one.
GET /value?item= C=C(C)c1cc2cc(C(C)=O)c(O)cc2o1 &field=normalized growth returns 0.94

----------
Experiment: chemical genetic growth profiling, strain panel (AID 1159580)
Settings: S. cerevisiae deletion strains, growth OD, locus YLR258W, strain gsy2, active compounds read low
The whole screen tested about 5,500 compounds, of which about 2,000 (36%) were called active. About 18% were inconclusive and are not listed. The list shows a part of the results.
Hi there, I'd appreciate the recorded normalized growth for every entry that follows.
Give bare numbers.

CC(C)=CCOc1c2occc2cc2ccc(=O)oc12 : 0.908
CCNc1nc(Cl)nc(NC(C)C)n1 : 1.01
COC(=O)C1=CO[C@@H](O[C@@H]2O[C@H](CO)[C@@H](O)[C@H](O)[C@H]2O)[C@@H]2[C@@H](C)[C@@H](O)C[C@H]12 : 0.981
COP(=S)(OC)SCn1nnc2ccccc2c1=O : 1
COc1cc(OC)c(C(C)=O)c(O)c1C : 0.933
C[C@]12CCC3C(CC[C@H]4C[C@@H](O)CC[C@]34C)C1CCC2=O (some centres not stated) : 0.945

Now look at this one.
GET /value?item= COc1cc2ccc(=O)oc2cc1O &field=normalized growth returns 0.95

----------
Experiment: chemical genetic growth profiling, strain panel (AID 1159580)
Settings: S. cerevisiae deletion strains, growth OD, locus YDL017W, strain CDC7, active compounds read low
Hit rate of the full screen: of about 5,500 compounds, about 2,000 (36%) were called active. Roughly 18% stayed inconclusive and do not appear here. This is one part of the list.
measured attribute: normalized growth

Answered cases to consult:
N/C(=N/OC(=O)c1ccccc1Cl)c1cccc(CS(=O)(=O)c2ccc(Cl)cc2)c1 : 0.984 (inactive)
O=C(c1ccc(Cl)cc1)N1CCN(c2ccc(C(F)(F)F)cn2)CC1 : 0.995 (inactive)

Please look at the items below and tell me normalized growth for each one, in order.
1. O=C(N/N=C\c1cc(Cl)cc(Cl)c1O)c1ccccc1Oc1ccccc1
2. CCOC(=O)C(O)(c1ccc(NC(=O)Nc2ccc(Cl)cc2)cc1)C(F)(F)F (centres undefined)

Reply:
1. 0.975 (inactive)
2. 0.989 (inactive)

----------
Experiment: chemical genetic growth profiling, strain panel (AID 1159580);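 also: tested at 20 µM; growth read once vehicle control cultures reached saturation at 30 °C; 1 = growth at the plate median or of vehicle wells; lower values mean less growth of the strain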
Settings: S. cerevisiae deletion strains, growth OD, locus YER123W, strain YCK3, active compounds read low
About 2,000 (36%) of roughly 5,500 compounds were called active. Roughly 18% stayed inconclusive and do not appear here. This is one part of the list.
Hi there, I'd appreciate the recorded normalized growth for every entry that follows.
Numbers only.

COC(=O)c1ccc(Oc2c(C(F)(F)F)oc3cc(O)ccc3c2=O)cc1 : 0.924
CC1CCc2c(sc3ncnc(Sc4ccccc4)c23)C1 (stereo unspecified) : 0.926
O=C(NCc1ccc(F)c(Cl)c1)Nc1csc([N+](=O)[O-])c1 : 0.917

Please look at the items below and tell me normalized growth for each one, in order.
1. O=C1OC(Nc2ccccc2SCc2ccccc2Cl)c2ccccc21 (stereo unspecified)
2. N#C/C(=C\C=C\c1ccccc1)c1nc2ccccc2[nH]1
3. O=C1CSC(=Nc2cc(Cl)cc(Cl)c2)N1Cc1cccnc1
4. O=C(N/N=C\c1cc(Cl)cc(Cl)c1O)c1ccccc1Oc1ccccc1
5. COc1ccc(-c2cc(NS(=O)(=O)c3cccc(F)c3)n(-c3ccc(Cl)c(Cl)c3)n2)cc1
6. CC(=O)Oc1ccc2c(=O)c(Oc3ccc(Cl)cc3)c(C)oc2c1
7. O=C(c1ccc(Cl)cc1)N1CCN(c2ccc(C(F)(F)F)cn2)CC1
8. COc1ccc(/C(C#N)=C2C=C/C(=N/O)C(Cl)=C\2)cc1

Reply:
1: 0.89; 2: 0.878; 3: 0.887; 4: 0.882; 5: 0.908; 6: 0.918; 7: 0.913; 8: 0.898

----------
Assay: chemical genetic growth profiling, strain panel (AID 1159580);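 also: tested at 20 µM; growth read once vehicle control cultures reached saturation at 30 °C; 1 = growth at the plate median or of vehicle wells; lower values mean less growth of the strain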
Conditions: S. cerevisiae deletion strains, growth OD, locus YHR013C, strain ard1
Screen size: about 5,500 compounds; about 2,000 (36%) were called active. Inconclusive results (about 18%) are left out. No stated cut-off is given here; in the data, active means normalized growth mostly below about 0.91 (no sharp cut-off); inconclusive means no clear call, values can overlap the other calls; inactive means mostly above about 0.92. The list shows a part of the results.
Your reply should match one of these outcome classes. yes (1) = active, no (0) = inactive

CN1CCN(CCCN2c3ccccc3Sc3ccc(Cl)cc32)CC1 : no (0)

Now for another entry.
Ask: Please indicate how the test categorized FC(F)(F)COCC(F)(F)F .
Reply: no (0)

----------
Test: chemical genetic growth profiling, strain panel (AID 1159580);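 also: tested at 20 µM; growth read once vehicle control cultures reached saturation at 30 °C; 1 = growth at the plate median or of vehicle wells; lower values mean less growth of the strain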
Settings: S. cerevisiae deletion strains, growth OD, locus YLR371W, strain rom2, active compounds read low
Hit rate of the full screen: of about 5,500 compounds, about 2,000 (36%) were called active. Roughly 18% stayed inconclusive and do not appear here. Some of the results follow.
measured attribute: normalized growth
Answers are plain numbers.

Answered cases to consult:
c1ccc2c(c1)[nH]c1cnccc12 : 0.983
COc1ccc2c(c1)[nH]c1c(C)nccc12 : 0.979
CN(C)c1nc(N(C)C)nc(N(C)C)n1 : 1.01

Now look at this one.
GET /value?item= CC(=O)OC1CCC23C(=O)OC45CCC(C6=CC(=O)OC6)C4(C)CCC2C5CCC3(O)C1 (centres undefined) &field=normalized growth returns 1.02
